- Target desc: chicken lysozyme (chicken, UniProt P00698 19-147)
- Sequence (P00698 19-147 limits assumed): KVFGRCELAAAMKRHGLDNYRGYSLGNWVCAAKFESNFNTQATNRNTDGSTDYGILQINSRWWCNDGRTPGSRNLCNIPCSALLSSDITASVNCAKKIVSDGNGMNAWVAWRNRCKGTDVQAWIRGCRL
- Experimental protocol: phage ELISA on target-coated Maxisorp wells, anti-M13 pVIII-HRP; further: unit not given here
# cutoff 2 applies to Target Binding; >= gives label 1, < gives label 0

Before answering, review these 4 worked examples.
Binder	Assigned class
FG6 phage clone RRPTKGN / GPGQV / LGMLRR (designed binder, not shown: 6-his, myc tag and C-terminal domain of M13 pIII (phage display fusion)) TIPEIIIKVRGTQVVGSDMTVIVEFRRPTKGNLRNVWVHLDGPGVTRPMKKMFREIGPGQVVQWEEVVRPWVSGHRKLIASMSLGMLRRVYGELDVQIQRR	label 1
FG6 phage clone INPLQVS / GPSSA / IYRYGL (designed binder, not shown: 6-his, myc tag and C-terminal domain of M13 pIII (phage display fusion)) TIPEIIIKVRGTQVVGSDMTVIVEFINPLQVSLRNVWVHLDGPGVTRPMKKMFREIGPSSAVQWEEVVRPWVSGHRKLIASMSIYRYGLVYGELDVQIQRR	label 1
FG6 phage clone PSPFIEN / RPECI / RGWLRS (designed binder, not shown: 6-his, myc tag and C-terminal domain of M13 pIII (phage display fusion)) TIPEIIIKVRGTQVVGSDMTVIVEFPSPFIENLRNVWVHLDGPGVTRPMKKMFREIRPECIVQWEEVVRPWVSGHRKLIASMSRGWLRSVYGELDVQIQRR	label 0
FG6 phage clone TIPHRGR / QPNVP / RAFLRH (designed binder, not shown: 6-his, myc tag and C-terminal domain of M13 pIII (phage display fusion)) TIPEIIIKVRGTQVVGSDMTVIVEFTIPHRGRLRNVWVHLDGPGVTRPMKKMFREIQPNVPVQWEEVVRPWVSGHRKLIASMSRAFLRHVYGELDVQIQRR	label 0

Turning now to a further record.
// query // inclusive: Target Binding at least 2? input: FG6 phage clone ANPIKHM / RPTAG / LGVLRR (designed binder, not shown: 6-his, myc tag and C-terminal domain of M13 pIII (phage display fusion)) TIPEIIIKVRGTQVVGSDMTVIVEFANPIKHMLRNVWVHLDGPGVTRPMKKMFREIRPTAGVQWEEVVRPWVSGHRKLIASMSLGVLRRVYGELDVQIQRR
// result label 1
